Give measured AUC of viability dose-response curve for each item. Keep answers brief.
- Test system: NOMO1
- test name: AUC of viability dose-response curve (% viability x log10 dose units); higher = less sensitive
- condition details: RPMI 5 mM glucose + 10% dialyzed FBS; 48 h
I'd appreciate a reply containing only the number, no unit.

Prompt line: Item under review: OC(=O)\C1=C\N(C2CC2)C3=CC(=C(F)C=C3C1=O)N4CCNCC4 . Reported AUC of viability dose-response curve?
Response line: 422

Prompt line: Record request: AUC of viability dose-response curve value, item CN1CCc2c(c3ccccc3n2Cc2ccc(C(=O)NO)cc2)C1
Response line: 397

Prompt line: What AUC of viability dose-response curve value was documented for this molecule, CC(C(C)N1CC(=O)NC(=O)C1)N1CC(=O)NC(=O)C1 (stereo not given) ?
Response line: 471

Prompt line: Quick one: AUC of viability dose-response curve of CN(C)CCCC1(c2ccc(F)cc2)OCc2cc(C#N)ccc21 (stereo not given) ?
Response line: 392

Prompt line: Form field: reported AUC of viability dose-response curve of C[C@H](CCC(=O)O)[C@H]1CC[C@H]2[C@@H]3[C@H](O)C[C@@H]4C[C@H](O)CC[C@]4(C)[C@H]3CC[C@]12C
Response line: 409
